ASSAY_TARGET: Histone deacetylase
ASSAY_PROCEDURE: Inhibition of histone deacetylase in human HeLa cells assessed as induction of histone H3 hyperacetylation
Format: cell-based
The label yes (1) is reserved for EC50 strictly under 200 nM; no (0) covers values equal to or above it.

Here are 2 molecules together with their reported answers.
CC(=O)SCC(=O)c1ccc(NS(=O)(=O)c2ccc(C(F)(F)F)cc2)cc1
no (0)
CC(=O)SCC(=O)c1ccc(NS(=O)(=O)c2ccc(Cl)c(Cl)c2)cc1
no (0)

Answer whether the molecule CC(=O)SCC(=O)c1ccc(NS(=O)(=O)c2ccccc2)cc1 has EC50 strictly less than 200 nM
no (0)

Next entry: CC(=O)SCC(=O)c1ccc(NS(=O)(=O)c2ccc3[nH]ccc3c2)cc1
yes (1)

Next entry: CC(=O)SCC(=O)c1ccc(NS(=O)(=O)c2ccc3c(c2)CCN3)cc1
yes (1)

* * *

ASSAY_TARGET: Histone deacetylase
ASSAY_PROCEDURE: Inhibition of histone deacetylase in human HeLa cells assessed as induction of histone H3 hyperacetylation
Format: cell-based
QUANTITY_MEASURED: EC50

The cases that follow already have their EC50 on record.
CC(=O)SCC(=O)c1ccc(NS(=O)(=O)c2ccc(OC(F)(F)F)cc2)cc1
0.2 µM
CC(=O)SCC(=O)c1ccc(NS(=O)(=O)c2ccccc2)nc1
0.15 µM
CC(=O)SCC(=O)c1ccc(NS(=O)(=O)c2ccc3c(c2)OCCN3C)nc1
0.15 µM

What value of measured EC50 is listed for CC(=O)SCC(=O)c1ccc(NS(=O)(=O)c2ccc3c(c2)OCCN3C)cc1 ?
0.1 µM

Next entry: CC(=O)SCC(=O)c1ccc(NS(=O)(=O)c2ccccc2Cl)cc1
0.85 µM

Next entry: COc1ccc(S(=O)(=O)Nc2ccc(C(=O)CSC(C)=O)cc2)cc1
0.05 µM

* * *

ASSAY_TARGET: Histone deacetylase
ASSAY_PROCEDURE: Inhibition of histone deacetylase in human HeLa cells assessed as induction of histone H3 hyperacetylation
Type: cell-based
QUANTITY_MEASURED: EC50 (µM)
Unit µM implied. Number only.

The cases that follow already have their EC50 on record.
CC(=O)SCC(=O)c1ccc(NC(=O)Nc2ccc(OC(F)(F)F)cc2)cc1
11.2
CC(=O)SCC(=O)c1ccc(C(=O)Nc2ccc(OC(F)(F)F)cc2)cc1
67.1
CC(=O)SCC(=O)c1ccc(NS(=O)(=O)c2ccc3c(c2)N(C(C)=O)CC3)cc1
0.091
CC(=O)SCC(=O)c1ccc(NS(=O)(=O)c2ccc3c(c2)CCO3)nc1
0.095
CC(=O)SCC(=O)c1ccc(NS(=O)(=O)c2ccc3ccccc3c2)cc1
0.029

What value of measured EC50 is listed for CC(=O)SCC(=O)c1ccc(NS(=O)(=O)c2ccc3c(c2)OCO3)nc1 ?
0.36

Next entry: CC(=O)SCC(=O)c1ccc(NS(=O)(=O)c2cccc(OC(F)(F)F)c2)cc1
0.79

* * *

ASSAY_TARGET: Histone deacetylase
ASSAY_PROCEDURE: Inhibition of histone deacetylase in human HeLa cells assessed as induction of histone H3 hyperacetylation
Assay type: cell-based
Form field: EC50 (one value per entry).
Unit nM implied. Number only.

CC(=O)SCC(=O)c1ccc(NS(=O)(=O)c2ccc(F)cc2)cc1
950
COc1ccc(S(=O)(=O)Nc2ccc(C(=O)CSC(C)=O)cc2)cc1OC
280

What value of measured EC50 is listed for CC(=O)SCC(=O)c1ccc(NS(=O)(=O)c2ccc(C)cc2)cc1 ?
100

Next entry: CC(=O)SCC(=O)c1ccc(NS(=O)(=O)c2cccc(F)c2)cc1
460

Next entry: CC(=O)SCC(=O)c1ccc(NS(=O)(=O)c2ccc(Cl)cc2)cc1
280

* * *

Form field: EC50 (one value per entry).
ASSAY_TARGET: Histone deacetylase
ASSAY_PROCEDURE: Inhibition of histone deacetylase in human HeLa cells assessed as induction of histone H3 hyperacetylation
Assay type: cell-based
Unit nM implied. Number only.

The cases that follow already have their EC50 on record.
CC(=O)SCC(=O)c1ccc(NS(=O)(=O)c2ccc3c(c2)ncn3C)nc1
240
CC(=O)SCC(=O)c1ccc(NCc2ccc(OC(F)(F)F)cc2)cc1
1500
CC(=O)SCC(=O)c1ccc(NS(=O)(=O)c2ccc3cc[nH]c3c2)cc1
44
CC(=O)SCC(=O)c1ccc(NS(=O)(=O)c2ccc3ccccc3c2)nc1
42

Let us examine a further case.
Report EC50 for COc1cccc(S(=O)(=O)Nc2ccc(C(=O)CSC(C)=O)cc2)c1 tested on Histone deacetylase.
170

* * *

ASSAY_TARGET: Histone deacetylase
ASSAY_PROCEDURE: Inhibition of histone deacetylase in human HeLa cells assessed as induction of histone H3 hyperacetylation
Type: cell-based
Form field: EC50 (one value per entry).
Unit nM implied. Number only.

The cases that follow already have their EC50 on record.
CC(=O)SCC(=O)c1ccc(NS(=O)(=O)c2cccc(Cl)c2)cc1
150
CC(=O)SCC(=O)c1ccc(NS(=O)(=O)c2ccc3c(c2)NCC3)cc1
47
CC(=O)SCC(=O)c1ccc(NS(=O)(=O)c2ccc3c(c2)OCO3)cc1
88

Let us examine a further case.
What value of measured EC50 is listed for CC(=O)SCC(=O)c1ccc(NS(=O)(=O)c2ccc3c(c2)OCCO3)cc1 ?
26

* * *

ASSAY_TARGET: Histone deacetylase
ASSAY_PROCEDURE: Inhibition of histone deacetylase in human HeLa cells assessed as induction of histone H3 hyperacetylation
Assay type: cell-based
QUANTITY_MEASURED: EC50

The cases that follow already have their EC50 on record.
CC(=O)SCC(=O)c1ccc(NS(=O)(=O)c2ccc3c(c2)CCO3)cc1
0.082 µM
CC(=O)SCC(=O)c1ccc(N(C)S(=O)(=O)c2ccc(OC(F)(F)F)cc2)cc1
4.3 µM

Let us examine a further case.
What value of measured EC50 is listed for CC(=O)SCC(=O)c1ccc(S(=O)(=O)Nc2ccc(OC(F)(F)F)cc2)cc1 ?
1 µM
